A collection of compounds and their measured Kb
- TEST_SYSTEM: kappa opioid receptor (KOR) (Homo sapiens, UniProt P41145)
- Sequence (P41145 whole entry): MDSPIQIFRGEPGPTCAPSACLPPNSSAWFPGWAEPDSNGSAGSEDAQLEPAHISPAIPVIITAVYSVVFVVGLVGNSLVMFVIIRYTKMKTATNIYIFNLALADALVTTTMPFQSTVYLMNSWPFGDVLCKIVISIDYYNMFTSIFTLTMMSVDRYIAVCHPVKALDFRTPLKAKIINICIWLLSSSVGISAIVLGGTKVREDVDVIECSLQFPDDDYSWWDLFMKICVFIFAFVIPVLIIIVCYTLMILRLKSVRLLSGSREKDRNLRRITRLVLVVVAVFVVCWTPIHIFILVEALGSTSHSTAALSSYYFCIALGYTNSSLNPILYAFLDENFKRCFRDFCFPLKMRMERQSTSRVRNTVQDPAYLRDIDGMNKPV
- TEST_METHOD_NOTES: GTP-γ-S Binding Assay (SPA-based), antagonist mode vs U69593
- Type: biochemical
- PARTICULARS: In vitro antagonism; agonist U69593 300 nM; Kb by Cheng-Prusoff equation
- Protocol: An SPA—based GTP-γ-S assay format was developed based on previous opioid (Emmerson et al., J. Pharm Exp Ther 278, 1121, 1996; Horng et al., Society for Neuroscience Abstracts, 434.6, 2000) and muscarinic (DeLapp et al., JPET 289, 946, 1999) assay formats. Membranes were re-suspended in 20 mM HEPES, 100 mM NaCl, 5 mM MgCl2, 1 mM DTT, and 1 mM EDTA. […] Signal stability at 4° C. was determined to be >60 hours. Plates were warmed to room temperature and counted in a Wallac Microbeta scintillation counter. […]
# number only, unit µM dropped from output

Look over these answered cases.
{"COMPOUND": "NC(=O)c1ccc(OC2CCC(NCCC3CCOCC3)CC2)nc1 (racemic)", "UNIT": "µM", "QUANTITATIVE_RESULT": 0.601}
{"COMPOUND": "CC(C)CCNC1CCC(Oc2ccc(C(N)=O)cn2)CC1 (racemic)", "UNIT": "µM", "QUANTITATIVE_RESULT": 0.62}
{"COMPOUND": "NC(=O)c1ccc(OC2CCN(Cc3ccccc3)CC2)cc1 [Example 9, 4-(1-Benzyl-piperidin-4-yloxy)-benzamide]", "UNIT": "µM", "QUANTITATIVE_RESULT": 0.93}

Let us examine a further case.
For NC(=O)c1ccc(OC2CCN(CCCc3ccccc3)CC2)cc1 , write its Kb.
0.999
